Readings of Percent Effect for the listed molecules
# Target under test: Proteasome subunit beta (Trypanosoma cruzi)
# Sequence (whole entry): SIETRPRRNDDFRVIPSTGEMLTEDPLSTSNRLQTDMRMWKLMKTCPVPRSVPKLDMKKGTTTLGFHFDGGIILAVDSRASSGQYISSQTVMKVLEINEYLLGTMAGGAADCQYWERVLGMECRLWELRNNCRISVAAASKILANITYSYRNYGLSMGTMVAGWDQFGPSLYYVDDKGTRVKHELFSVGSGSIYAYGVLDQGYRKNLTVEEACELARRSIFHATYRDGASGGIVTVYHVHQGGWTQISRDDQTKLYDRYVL
# Run description: Trypanosoma cruzi proteasome chymotrypsin-like activity (TcProtChymo) assay. Note: in the data most compounds retested in dose-response had high values.
# Type: functional
# Design: scale not given: direction of the effect not stated beside the values
# Condition description: 9.37 µM
The figure you give is taken to be in %; do not add the unit.

INSERT INTO results (molecule, readout_unit, result) VALUES
  ('CN(C)C(=O)N[C@@H]1CN(Cc2ccc3c(c2)OCO3)[C@@H]2CCCO[C@@H]21', '%', 14.5),
  ('Cc1cn2c(n1)CCC(NC(=O)c1cc(Br)cn1C)C2 (configuration not stated)', '%', 8.23),
  ('Cc1ccc(C2C3=C(COC3=O)Nc3[nH]nc(C)c32)cc1C (configuration not stated)', '%', 10.7),
  ('Cc1nc(N2CCN(C)CC2)ncc1C(=O)N1CCC(O)(CO)CC1', '%', 0.944);

[in] Quote Proteasome subunit beta (Trypanosoma cruzi) Percent Effect for entry CC(c1cccc(S(N)(=O)=O)c1)N(C)CCc1ccccc1 (configuration not stated) .
[out] 10.9

###

# Tested on: Trypanosoma cruzi
# Run description: Trypanosoma cruzi phosphomannomutase and mannose-1-phosphate guanylyltransferase assay
# Assay type: functional
# Parameters: scale not given: direction of the effect not stated beside the values
# Condition description: 10 µM
Experimental readout: Percent Effect (%)
Report the value in % with no unit label.

Some compounds with recorded Percent Effect:
INSERT INTO assay_data (molecular_string, result) VALUES
  ('CNC(=O)N1CCc2cc(C(=O)N(C)C)c(NCC3CC3)nc2CC1', -4.4),
  ('COc1cccc(-c2nc(CNCCn3cccn3)cs2)c1', -5.54);

[in] Indicate its recorded Percent Effect; the compound in question is "NC(=O)C1CCN(C(=O)c2cccc(OCc3cscn3)c2)CC1"
[out] -3.1

[in] Given "Cc1cc(C)n(Cc2ccc(C(=O)NCCN3CCOCC3)cc2)n1" , respond with its Percent Effect.
[out] 6.32

[in] Quick one: give measured Percent Effect for "O=C(NCc1nnc2n1CCC2)N(Cc1ccco1)C1CC1"
[out] -2.12

[in] Quick one: give measured Percent Effect for "CC(C)NC(=O)[C@@H](NC(=O)N1CCN(c2ccc(Cl)cc2)CC1)C(C)C"
[out] -3.78

###

# Target under test: Proteasome subunit beta (Trypanosoma cruzi)
# Run description: Trypanosoma cruzi proteasome chymotrypsin-like activity (TcProtChymo) assay. Note: in the data most compounds retested in dose-response had high values.
# Format: functional
# Design: scale not given: direction of the effect not stated beside the values
# Condition description: 9.37 µM
Experimental readout: Percent Effect (%)
Provide only the numeric value, understood in %.

Examples from the recorded data:
INSERT INTO results (compound, target_under_test, result) VALUES
  ('COc1ccc(OCCNCCn2cccn2)cc1', 'Proteasome subunit beta (Trypanosoma cruzi)', 6.69),
  ('O=c1c(-c2ccnc(NC3CCOCC3)n2)cnc2sc(Cl)cn12', 'Proteasome subunit beta (Trypanosoma cruzi)', 17.7),
  ('CCc1ncc2c(n1)CN(Cc1nc(-c3ccsc3)no1)CC2', 'Proteasome subunit beta (Trypanosoma cruzi)', 7.02),
  ('Cc1cc(C)n(C2CCCN(C(=O)Cc3csc(C)n3)C2)n1 (stereo unspecified)', 'Proteasome subunit beta (Trypanosoma cruzi)', 4.34),
  ('CCc1cccc(N2CCC(NC(=O)c3cc[nH]n3)CC2)c1', 'Proteasome subunit beta (Trypanosoma cruzi)', 11.2);

[in] Tell me its Percent Effect given COC(=O)c1ccc(N2CCN(C(=O)c3cnn(C)c3)C(C)C2)cc1 (stereo unspecified) as the entry.
[out] 11.9

###

# Target under test: AMP-activated protein kinase, AMPK (Homo sapiens) (UniProt P54646+O43741+P54619+Q9UGJ0+Q9Y478+Q13131+Q9UGI9)
# Run description: AMP-dependent Kinase enzyme assay. An in vitro enzyme assay that detects ADP turnover that is directly proportional to AMPK activity. This uses naive AMPK that is activated during the assay with MK-8722
# Type: functional
# Design: scale not given: direction of the effect not stated beside the values
# Condition description: 30 µM
Below, each entry is listed with its recorded Percent Effect.
The reply should be a number in %, with the unit left off.

INSERT INTO assay_data (compound, readout_unit, result) VALUES
  ('Cc1cc(C2CCCN2C(=O)c2cc3c(s2)CCC3)on1 (stereo unspecified)', '%', 2.83),
  ('CCS(=O)(=O)N(C)C1CCN(C(=O)c2cccc(Cl)c2)CC1', '%', -9.5),
  ('COc1ccc(CC(=O)N2CCCCC2Cn2cccn2)cc1OC (stereo unspecified)', '%', 1.89),
  ('CCNC(=O)N1CCCC(c2noc(CC)n2)C1 (stereo unspecified)', '%', 3.81),
  ('CNC(=O)[C@H]1C[C@@H]2CN(S(=O)(=O)c3ccccc3)C[C@@H]2N1C(C)=O', '%', 3.54);

Continue with the next compound.
[in] Look up and report measured Percent Effect for this entry: "Cc1ccc(C2(CN3CCCC3)CCNCC2)nc1"
[out] -4.02

###

# Target under test: Proteasome subunit beta (Trypanosoma cruzi)
# Run description: Trypanosoma cruzi proteasome chymotrypsin-like activity (TcProtChymo) assay. Note: in the data most compounds retested in dose-response had high values.
# Type: functional
# Parameters: scale not given: direction of the effect not stated beside the values
# Condition description: 9.37 µM
Experimental readout: Percent Effect (%)
Lab book: enter the figure in %, no units written.

INSERT INTO results (compound, experimental_readout, result) VALUES
  ('COCC1CN(Cc2ccsc2)Cc2nn(C)cc21 (stereo not drawn)', 'Percent Effect', 20.9);

[in] Query Percent Effect for "Cc1ccc(CN2CCn3cc(CN(C)Cc4ccco4)nc3C2)o1"
[out] 16.2

[in] Report Percent Effect for "Cc1cc(C(=O)N2CCc3nnc(N)cc3C2)c(C)n1C1CC1"
[out] 20.1

[in] Determine from records and report Percent Effect for "CCN(CC)C(=O)CCNC(=O)Cc1nc(-c2ccco2)oc1C"
[out] 17.3

[in] Indicate its recorded Percent Effect; the compound in question is "COC(=O)C1CCN(C(=O)c2ccc(N(C)S(C)(=O)=O)c(C)c2)CC1"
[out] 13.7

###

# Target under test: Sialic acid-binding Ig-like lectin 9 (Homo sapiens) (UniProt Q9Y336)
# Sequence (Q9Y336 whole entry): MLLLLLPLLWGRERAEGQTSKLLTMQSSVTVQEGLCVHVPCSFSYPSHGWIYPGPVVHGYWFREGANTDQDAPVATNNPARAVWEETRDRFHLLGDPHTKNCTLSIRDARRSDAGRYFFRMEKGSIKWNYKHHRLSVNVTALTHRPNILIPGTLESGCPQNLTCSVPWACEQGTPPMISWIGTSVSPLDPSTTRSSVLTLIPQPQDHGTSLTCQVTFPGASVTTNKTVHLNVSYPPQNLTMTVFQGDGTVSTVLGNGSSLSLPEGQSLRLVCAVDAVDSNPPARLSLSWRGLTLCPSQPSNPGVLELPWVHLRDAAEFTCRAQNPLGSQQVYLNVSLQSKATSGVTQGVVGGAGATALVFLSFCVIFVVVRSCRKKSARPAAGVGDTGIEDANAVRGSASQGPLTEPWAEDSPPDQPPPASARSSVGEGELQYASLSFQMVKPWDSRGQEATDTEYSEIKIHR
# Run description: Hs-Siglec9 ALPHAscreen SOP 20170721
# Set-up: scale not given: direction of the effect not stated beside the values
# Condition description: 10 µM
Experimental readout: Percent Effect (%)
# value in %; strip the unit string

INSERT INTO results (molecule, target_under_test, experimental_readout, result) VALUES
  ('O=C(CSc1ccccn1)N1C[C@H]2CC[C@@H]1CN(Cc1cscn1)C2', 'Sialic acid-binding Ig-like lectin 9 (Homo sapiens) (UniProt Q9Y336)', 'Percent Effect', 4.87),
  ('CC(C)C(C(=O)N1CCC(N(C)c2cccnn2)CC1)n1cncn1 (stereo unspecified)', 'Sialic acid-binding Ig-like lectin 9 (Homo sapiens) (UniProt Q9Y336)', 'Percent Effect', 4.35),
  ('CCOCCCNC(=O)c1ccccc1S(C)(=O)=O', 'Sialic acid-binding Ig-like lectin 9 (Homo sapiens) (UniProt Q9Y336)', 'Percent Effect', 5.86),
  ('Cc1nn(C)c(C)c1C1CCCN1Cc1nc(C2CC2)no1 (stereo unspecified)', 'Sialic acid-binding Ig-like lectin 9 (Homo sapiens) (UniProt Q9Y336)', 'Percent Effect', -3.54),
  ('CC(C)(C)NC(=O)C1CSCN1S(=O)(=O)c1ccc(F)cc1 (stereo unspecified)', 'Sialic acid-binding Ig-like lectin 9 (Homo sapiens) (UniProt Q9Y336)', 'Percent Effect', -0.312),
  ('COc1ccccc1OC1CCN(Cc2cnc(N(C)C)nc2)CC1', 'Sialic acid-binding Ig-like lectin 9 (Homo sapiens) (UniProt Q9Y336)', 'Percent Effect', 3.25),
  ('Cc1ccc(-c2nc(CN3CCn4c(nnc4C4CC4)C3)cs2)o1', 'Sialic acid-binding Ig-like lectin 9 (Homo sapiens) (UniProt Q9Y336)', 'Percent Effect', -11.3),
  ('c1ccc(CN2CCOCC3(CCN(C4CCOCC4)C3)C2)cc1 (stereo unspecified)', 'Sialic acid-binding Ig-like lectin 9 (Homo sapiens) (UniProt Q9Y336)', 'Percent Effect', -8.07),
  ('Cc1cnn(C(C)C2CC2)c1NC(=O)c1cnccn1 (stereo unspecified)', 'Sialic acid-binding Ig-like lectin 9 (Homo sapiens) (UniProt Q9Y336)', 'Percent Effect', 0.592),
  ('CC(C)(C)c1nc(CN(Cc2cccs2)C2CCS(=O)(=O)C2)no1 (stereo unspecified)', 'Sialic acid-binding Ig-like lectin 9 (Homo sapiens) (UniProt Q9Y336)', 'Percent Effect', -2);

[in] For the molecule "CCOCCCn1c(NC(=O)c2ccc(C)nc2)nc2ccccc21" , report Percent Effect.
[out] 3.52
